Give EC50 for every item shown.
target: Potassium voltage-gated channel subfamily KQT member 2 (Rattus norvegicus); test: Agonist activity at rat KCNQ2 expressed in CHOK1 cells by whole cell patch clamp assay
Sequence (O88943 whole entry): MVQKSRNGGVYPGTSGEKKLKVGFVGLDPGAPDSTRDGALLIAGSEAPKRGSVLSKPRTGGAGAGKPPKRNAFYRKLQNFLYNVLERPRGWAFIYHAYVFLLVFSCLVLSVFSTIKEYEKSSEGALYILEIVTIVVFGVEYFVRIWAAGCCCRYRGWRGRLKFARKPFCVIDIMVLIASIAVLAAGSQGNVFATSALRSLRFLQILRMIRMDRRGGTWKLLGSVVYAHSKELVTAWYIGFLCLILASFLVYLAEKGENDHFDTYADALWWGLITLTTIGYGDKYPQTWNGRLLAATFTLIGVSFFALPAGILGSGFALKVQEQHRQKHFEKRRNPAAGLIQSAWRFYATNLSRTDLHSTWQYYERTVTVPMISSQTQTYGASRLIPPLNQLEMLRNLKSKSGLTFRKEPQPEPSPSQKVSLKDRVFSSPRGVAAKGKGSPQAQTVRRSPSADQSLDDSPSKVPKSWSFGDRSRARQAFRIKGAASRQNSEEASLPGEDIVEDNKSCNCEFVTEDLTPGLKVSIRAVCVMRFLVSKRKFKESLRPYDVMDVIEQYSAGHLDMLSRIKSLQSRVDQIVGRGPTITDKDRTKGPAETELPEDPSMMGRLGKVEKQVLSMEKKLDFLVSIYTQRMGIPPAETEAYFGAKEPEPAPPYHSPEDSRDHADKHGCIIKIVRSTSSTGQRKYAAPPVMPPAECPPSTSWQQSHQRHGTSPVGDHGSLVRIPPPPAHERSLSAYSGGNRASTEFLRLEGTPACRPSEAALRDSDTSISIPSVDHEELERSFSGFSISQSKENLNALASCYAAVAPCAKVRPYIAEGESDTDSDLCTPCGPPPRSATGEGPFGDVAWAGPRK

Reported EC50 for "C#CCN(Cc1ccc(F)cc1)c1ccc(NC(=O)OC(C)(C)C)c(NC(=O)OC(C)(C)C)c1" was > 30 µM

Recorded result, "C#CCN(Cc1ccc(F)cc1)c1ccc(NC(=O)OC(C)(C)C)c(NC(=O)OCC)c1" , EC50: > 30 µM

Summary for this compound, "C#CCN(Cc1ccc(F)cc1)c1ccc(NC(=O)OCC)c(NC(=O)OC(C)(C)C)c1" : EC50 is > 30 µM

Record "CCOC(=O)Nc1ccc(NCc2ccc(F)cc2)cc1N" , field EC50: 2.17 µM

====

biological target: Potassium voltage-gated channel subfamily KQT member 5 (Homo sapiens, UniProt Q9NR82); test: Activity at human KCNQ5 expressed in CHOK1 cells assessed as ratio of amplitude of outward current in presence of test compound to amplitude of outward current in absence of test compound at 10 uM at -10 mV by whole cell patch clamp assay; format: cell-based
Sequence (Q9NR82 whole entry): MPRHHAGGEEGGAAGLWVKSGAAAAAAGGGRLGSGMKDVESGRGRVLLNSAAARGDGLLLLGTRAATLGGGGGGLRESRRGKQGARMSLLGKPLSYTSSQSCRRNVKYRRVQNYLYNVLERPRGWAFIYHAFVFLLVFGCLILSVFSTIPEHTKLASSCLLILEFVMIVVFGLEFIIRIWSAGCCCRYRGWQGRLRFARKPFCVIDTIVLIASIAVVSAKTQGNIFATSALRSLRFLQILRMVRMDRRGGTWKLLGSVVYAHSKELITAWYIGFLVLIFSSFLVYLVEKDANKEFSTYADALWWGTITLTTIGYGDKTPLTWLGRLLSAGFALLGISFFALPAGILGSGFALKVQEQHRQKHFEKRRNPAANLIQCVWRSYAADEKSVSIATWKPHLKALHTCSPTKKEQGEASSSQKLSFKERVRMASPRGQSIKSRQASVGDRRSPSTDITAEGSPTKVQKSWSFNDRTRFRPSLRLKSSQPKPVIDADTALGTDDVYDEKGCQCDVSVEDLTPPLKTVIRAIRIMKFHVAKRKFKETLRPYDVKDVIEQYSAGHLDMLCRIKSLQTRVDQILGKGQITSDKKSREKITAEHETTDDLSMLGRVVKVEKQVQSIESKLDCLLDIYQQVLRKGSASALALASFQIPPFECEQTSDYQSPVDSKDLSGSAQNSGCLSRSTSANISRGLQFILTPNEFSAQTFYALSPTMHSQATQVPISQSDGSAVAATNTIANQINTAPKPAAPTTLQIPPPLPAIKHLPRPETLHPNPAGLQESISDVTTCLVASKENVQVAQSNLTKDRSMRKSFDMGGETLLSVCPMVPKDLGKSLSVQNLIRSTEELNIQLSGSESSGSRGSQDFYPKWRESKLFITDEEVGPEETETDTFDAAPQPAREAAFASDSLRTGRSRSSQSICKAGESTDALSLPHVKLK
Assignment: determine reported Ratio for the given compounds.

The value of Ratio measured for the compound "CCOC(=O)Nc1ccc(N(CC2=CCCCC2)Cc2ccc(F)cc2)cc1NC(=O)OCC" turned out to be 1.05

Briefly, Ratio measured for "C#CCN(Cc1ccc(F)cc1)c1ccc(NC(=O)OC(C)C)c(NC(=O)OC(C)C)c1" : 3.11

So, "C#CCN(Cc1ccc(F)cc1)c1ccc(NC(=O)OCC)c(NC(=O)OCC)c1" ? Its Ratio was 3.2

Ratio measured on "C#CCN(Cc1ccc(F)cc1)c1ccc(NC(=O)OCCCC)c(NC(=O)OCCCC)c1" = 4.13

The compound identified as "C#CCN(Cc1ccc(F)cc1)c1ccc(NC(=O)OCC)c(NC(=O)OCc2ccccc2)c1" registered its Ratio at 2.57

For "C#CCN(Cc1ccc(F)cc1)c1ccc(NC(=O)OC(C)(C)C)c(NC(=O)OC(C)(C)C)c1" the compound record lists Ratio as 5.32

// Ratio lookup, compound = "C#CCN(Cc1ccc(F)cc1)c1ccc(NC(=O)OC(C)(C)C)c(NC(=O)OCC)c1" , result: 4.59

Memo: "C#CCN(Cc1ccc(F)cc1)c1ccc(NC(=O)OC2CCCC2)c(NC(=O)OC2CCCC2)c1" , reported Ratio: 1.25

====

molecular target: Potassium voltage-gated channel subfamily KQT member 2 (Rattus norvegicus) (UniProt O88943); assay: Activity at rat KCNQ2 expressed in CHOK1 cells assessed as ratio of amplitude of outward current in presence of test compound to amplitude of outward current in absence of test compound at 10 uM at -10 mV by whole cell patch clamp assay; assay type: cell-based
What Ratio was measured for each of the following?
# print the numeric value only

# Ratio of "C#CCN(Cc1ccc(F)cc1)c1ccc(NC(=O)OC(C)(C)C)c(NC(=O)OC(C)(C)C)c1" = 1

# Ratio of "C#CCN(Cc1ccc(F)cc1)c1ccc(NC(=O)OCCCC)c(NC(=O)OCCCC)c1" = 0.77

For record "C#CCN(Cc1ccc(F)cc1)c1ccc(NC(=O)OCC)c(NC(=O)OCCCC)c1" the listed Ratio is 1.06

The value of Ratio measured for the compound "C#CCN(Cc1ccc(F)cc1)c1ccc(NC(=O)OCC)c(NC(=O)OCC(C)C)c1" turned out to be 1.04

For record "C#CCN(Cc1ccc(F)cc1)c1ccc(NC(=O)OCc2ccccc2)c(NC(=O)OCc2ccccc2)c1" the listed Ratio is 1.25

Kindly note the recorded Ratio for "C#CCN(Cc1ccc(F)cc1)c1ccc(NC(=O)OC2CC2)c(NC(=O)OC2CC2)c1" , which is 0.64

Just so you know, measured Ratio for "CCOC(=O)Nc1ccc(N(CC=C(C)C)Cc2ccc(F)cc2)cc1NC(=O)OCC" came out at 0.66

Please fill in: Ratio reported for "C#CCN(Cc1ccc(F)cc1)c1ccc(NC(=O)OCCC)c(NC(=O)OCCC)c1" = 0.78

Measured Ratio, "C#CCN(Cc1ccc(F)cc1)c1ccc(NC(=O)OCC)c(NC(=O)OC(C)(C)C)c1" : 1.16
